Every entry's value here was drawn from patent US20110312986A1.

# experimental_setup: both, human, plasma, oral, 60 mg
observation_type: concentration at 4 hr (ng/mL)
# unit: ng/mL | format: bare number

Query :: Give the measured concentration at 4 hr of O=C(OC1CC2CCC(C1)[N+]21CCCC1)C(O)(c1ccccc1)c1ccccc1.[Cl-] (stereo not shown) .
Result :: 1.54

###

# experimental_setup: both, human, plasma, oral, 60 mg
observation_type: concentration at 3 hr (ng/mL)
# unit: ng/mL | format: bare number

Query :: Give the measured concentration at 3 hr of O=C(OC1CC2CCC(C1)[N+]21CCCC1)C(O)(c1ccccc1)c1ccccc1.[Cl-] (stereo not shown) [Trospium] .
Result :: 1.57
